- Assayed Target: NAD-dependent protein deacetylase sirtuin-2 (Homo sapiens, UniProt Q8IXJ6)
- Sequence (Q8IXJ6 whole entry): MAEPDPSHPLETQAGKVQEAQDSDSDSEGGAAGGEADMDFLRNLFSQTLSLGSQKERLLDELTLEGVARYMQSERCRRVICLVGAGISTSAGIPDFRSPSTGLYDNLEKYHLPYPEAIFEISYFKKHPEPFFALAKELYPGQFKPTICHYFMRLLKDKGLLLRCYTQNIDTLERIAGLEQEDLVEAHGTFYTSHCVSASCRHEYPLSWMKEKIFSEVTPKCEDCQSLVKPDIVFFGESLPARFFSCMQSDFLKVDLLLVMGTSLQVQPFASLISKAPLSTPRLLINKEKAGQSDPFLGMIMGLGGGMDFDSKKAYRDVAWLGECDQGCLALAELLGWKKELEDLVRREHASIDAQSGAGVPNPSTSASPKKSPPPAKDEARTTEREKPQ
Readout Label: IC50 (µM)
Numbers only, in µM.

(Q) # value lookup — system NAD-dependent protein deacetylase sirtuin-2 (Homo sapiens, UniProt Q8IXJ6), readout IC50, item `Cc1ccc(C(=O)Nc2ccc(S(=O)(=O)O)c3cc(S(=O)(=O)O)cc(S(=O)(=O)O)c23)cc1NC(=O)c1cccc(NC(=O)Nc2cccc(C(=O)Nc3cc(C(=O)Nc4ccc(S(=O)(=O)O)c5cc(S(=O)(=O)O)cc(S(=O)(=O)O)c45)ccc3C)c2)c1`
(A) 5.44

---

- Method Summary: AUC (0 to infinity) in BALB/c mouse at 5 mg/kg, ip measured after upto 24 hrs by LC-MS/MS analysis
- Type: ADME, organism-based
- Set-up: route intraperitoneal, dose 5 mg/kg, time <=24
- Assay Setup: in vivo
Readout Label: AUC(0-inf) (ng·h/mL)
Numbers only, in ng·h/mL.

(Q) Any idea what AUC(0-inf) was measured for `Cl.Cn1cc(CN2CC3(CCN(c4ncc(C(=O)NO)cn4)C3)C2)c2ccc(C#N)cc21` ?
(A) 640
